All values here come from PubChem BioAssay (NCATS).

# assay.comment: qHTS of pediatric cancer cell lines to identify multiple opportunities for drug repurposing: Primary screen for BT-37 cells (AID 1347094)
# condition.context: BT-37 viability, CellTiter-Glo luminescence, 48 h; series mostly up to 57.3 µM
Results filed as inconclusive are left out. The source made the active and inactive calls. Calls follow the shape of the dose curve; as a rule, active = well fitted cell-killing curve with a large enough effect; inconclusive = small, poorly fitted or top-dose-only effect; inactive = flat fitted curve, though single readings scatter.
Possible outcomes: active, inactive

{"molecule": "CN1CCN(CCCN2c3ccccc3Sc3ccc(Cl)cc32)CC1", "class.label": "active"}
{"molecule": "COc1ccc2c(c1)c(CC(=O)O)c(C)n2C(=O)c1ccc(Cl)cc1", "class.label": "inactive"}
{"molecule": "Cc1cc(C(C)(C)C)c(O)c(C)c1CC1=NCCN1", "class.label": "inactive"}
{"molecule": "CC12CC3CC(C)(C1)CC(N)(C3)C2", "class.label": "inactive"}
{"molecule": "NC(=O)OCC(COC(N)=O)c1ccccc1", "class.label": "inactive"}
{"molecule": "COc1cc2nc(N3CCN(C(=O)c4ccco4)CC3)nc(N)c2cc1OC", "class.label": "active"}
{"molecule": "NCCc1cnc[nH]1", "class.label": "inactive"}
{"molecule": "Cn1c(=O)c2[nH]cnc2n(C)c1=O", "class.label": "inactive"}
{"molecule": "CN(C)CCC=C1c2ccccc2C=Cc2ccccc21", "class.label": "inactive"}
{"molecule": "OCCN1CCN(CCCN2c3ccccc3Sc3ccc(C(F)(F)F)cc32)CC1", "class.label": "active"}
{"molecule": "CCc1cccc2c3c([nH]c12)C(CC)(CC(=O)O)OCC3 (configuration not stated)", "class.label": "inactive"}
{"molecule": "O=C(C1CCCCC1)N1CC(=O)N2CCc3ccccc3C2C1 (configuration not stated)", "class.label": "inactive"}
